// values below are reported Activity
Target: Tyrosine-protein kinase JAK2 (Homo sapiens)
Assay: Inhibition of human JAK2 JH1 expressed in baculovirus infected Sf9 cells assessed as residual activity at 100 nM relative to control
PARAMETER MEASURED: Activity (%)

CHEMICAL SMILES	EXPERIMENTAL SYSTEM	PARAMETER MEASURED	UNIT ABBREV	OBSERVED VALUE
CCCCS(=O)(=O)NCc1ccc(Nc2ncc(C)c(-c3cnn(C(C)C)c3)n2)cc1	Tyrosine-protein kinase JAK2 (Homo sapiens)	Activity	%	15
Cc1cnc(Nc2ccc(CCNC(=O)/C=C/C(=O)c3ccccc3)cc2)nc1-c1cnn(C(C)C)c1	Tyrosine-protein kinase JAK2 (Homo sapiens)	Activity	%	34
Cc1cnc(Nc2ccc(CCNC(=O)CCCN(C)C)cc2)nc1-c1cnn(C(C)C)c1	Tyrosine-protein kinase JAK2 (Homo sapiens)	Activity	%	77
Cc1cnc(Nc2ccc(CNC(=O)CCCl)cc2)nc1-c1cnn(C(C)C)c1	Tyrosine-protein kinase JAK2 (Homo sapiens)	Activity	%	45
CCCS(=O)(=O)NCc1ccc(Nc2ncc(C)c(-c3cnn(C(C)C)c3)n2)cc1	Tyrosine-protein kinase JAK2 (Homo sapiens)	Activity	%	10
C=CC(=O)NCc1ccc(Nc2ncc(C)c(-c3cnn(C(C)C)c3)n2)cc1	Tyrosine-protein kinase JAK2 (Homo sapiens)	Activity	%	13
Cc1cnc(Nc2ccc(CNC(=O)/C=C/C(=O)c3ccccc3)cc2)nc1-c1cnn(C(C)C)c1	Tyrosine-protein kinase JAK2 (Homo sapiens)	Activity	%	5
Cc1cnc(Nc2ccc(CNC(=O)CCl)cc2)nc1-c1cnn(C(C)C)c1	Tyrosine-protein kinase JAK2 (Homo sapiens)	Activity	%	6
CCS(=O)(=O)NCc1ccc(Nc2ncc(C)c(-c3cnn(C(C)C)c3)n2)cc1	Tyrosine-protein kinase JAK2 (Homo sapiens)	Activity	%	0

###

Target: Tyrosine-protein kinase JAK2 (Homo sapiens, UniProt O60674, V617F)
Sequence (O60674 whole entry V617F): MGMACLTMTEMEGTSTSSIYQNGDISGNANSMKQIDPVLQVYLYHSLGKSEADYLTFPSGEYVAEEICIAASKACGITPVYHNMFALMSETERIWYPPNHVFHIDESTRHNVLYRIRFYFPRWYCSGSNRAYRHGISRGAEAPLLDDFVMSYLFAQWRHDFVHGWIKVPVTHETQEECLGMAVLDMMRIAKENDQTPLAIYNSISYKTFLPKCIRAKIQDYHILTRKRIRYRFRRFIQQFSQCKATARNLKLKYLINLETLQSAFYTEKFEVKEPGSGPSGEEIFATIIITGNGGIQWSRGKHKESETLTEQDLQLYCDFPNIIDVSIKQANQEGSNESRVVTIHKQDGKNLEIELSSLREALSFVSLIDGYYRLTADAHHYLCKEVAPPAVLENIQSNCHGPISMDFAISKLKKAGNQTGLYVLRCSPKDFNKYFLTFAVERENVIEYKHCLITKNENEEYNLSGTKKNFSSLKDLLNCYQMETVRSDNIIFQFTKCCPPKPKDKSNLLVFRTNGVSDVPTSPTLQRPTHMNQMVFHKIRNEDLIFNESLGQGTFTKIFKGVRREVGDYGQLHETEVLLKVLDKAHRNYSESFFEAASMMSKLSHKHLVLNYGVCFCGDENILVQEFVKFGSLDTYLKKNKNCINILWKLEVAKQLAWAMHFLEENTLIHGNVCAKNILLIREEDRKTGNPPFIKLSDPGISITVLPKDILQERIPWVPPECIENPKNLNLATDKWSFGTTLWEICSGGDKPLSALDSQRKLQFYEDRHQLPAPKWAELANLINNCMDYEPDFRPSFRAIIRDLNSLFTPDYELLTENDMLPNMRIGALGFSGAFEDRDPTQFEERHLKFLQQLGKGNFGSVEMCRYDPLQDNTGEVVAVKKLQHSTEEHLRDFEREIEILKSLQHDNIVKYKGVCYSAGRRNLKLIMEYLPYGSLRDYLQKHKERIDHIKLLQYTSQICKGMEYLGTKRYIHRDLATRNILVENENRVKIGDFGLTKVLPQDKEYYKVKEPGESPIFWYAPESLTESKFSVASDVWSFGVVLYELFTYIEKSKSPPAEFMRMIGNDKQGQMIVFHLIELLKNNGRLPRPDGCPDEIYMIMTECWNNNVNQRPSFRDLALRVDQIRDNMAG
Assay: Inhibition of JAK2 V617F mutant in human SET2 cells

CHEMICAL SMILES	IC50
Cc1cnc(Nc2ccc(CCNC(=O)CCCl)cc2)nc1-c1cnn(C(C)C)c1	5620 nM
Cc1cnc(Nc2ccc(CNC(=O)/C=C/CN(C)C)cc2)nc1-c1cnn(C(C)C)c1	880 nM
Cc1cnc(Nc2ccc(CCNC(=O)/C=C/CN(C)C)cc2)nc1-c1cnn(C(C)C)c1	2190 nM
CCCS(=O)(=O)NCc1ccc(Nc2ncc(C)c(-c3cnn(C(C)C)c3)n2)cc1	108 nM
Cc1cnc(Nc2ccc(CCNC(=O)/C=C/C(=O)c3ccccc3)cc2)nc1-c1cnn(C(C)C)c1	279 nM
C=CS(=O)(=O)NCCc1ccc(Nc2ncc(C)c(-c3cnn(C(C)C)c3)n2)cc1	761 nM
CCCCS(=O)(=O)NCc1ccc(Nc2ncc(C)c(-c3cnn(C(C)C)c3)n2)cc1	421 nM
Cc1cnc(Nc2ccc(CNC(=O)/C=C/C(=O)c3ccccc3)cc2)nc1-c1cnn(C(C)C)c1	563 nM
C=CC(=O)NCc1ccc(Nc2ncc(C)c(-c3cnn(C(C)C)c3)n2)cc1	245 nM
Cc1cnc(Nc2ccc(CNC(=O)CCl)cc2)nc1-c1cnn(C(C)C)c1	150 nM
Cc1cnc(Nc2ccc(CNC(=O)CCCN(C)C)cc2)nc1-c1cnn(C(C)C)c1	1960 nM
Cc1cnc(Nc2ccc(CNC(=O)C3CC3)cc2)nc1-c1cnn(C(C)C)c1	205 nM
Cc1cnc(Nc2ccc(CNC(=O)CCCl)cc2)nc1-c1cnn(C(C)C)c1	985 nM
Cc1cnc(Nc2ccc(CCNC(=O)CCCN(C)C)cc2)nc1-c1cnn(C(C)C)c1	5230 nM
Cc1cnc(Nc2ccc(CCNC(=O)CCl)cc2)nc1-c1cnn(C(C)C)c1	1550 nM
Cc1cnc(Nc2ccc3c(c2)CCN(C(=O)/C=C/CN(C)C)C3)nc1-c1cnn(C(C)C)c1	475 nM
CCS(=O)(=O)NCc1ccc(Nc2ncc(C)c(-c3cnn(C(C)C)c3)n2)cc1	212 nM
Cc1cnc(Nc2ccc(CNS(=O)(=O)C3CC3)cc2)nc1-c1cnn(C(C)C)c1	109 nM
C=CS(=O)(=O)NCc1ccc(Nc2ncc(C)c(-c3cnn(C(C)C)c3)n2)cc1	44.3 nM

Values were extracted from ChEMBL document CHEMBL5325511.
